assay: melting temperature; melt of duplexes; settings: sodium 0.0675 M; strand 1 µM
The label is criterion met for Tm below 50 °C and criterion not met for Tm equal to or exceeding 50 °C.

SUBSTANCE | CATEGORY
CGACGTGCGATATGTGCTG+CAGCACATCACGCACGTCG (((((((((..((((((((+))))))))..))))))))) | criterion not met
CGACGTGCGTCATGTGCTG+CAGCACATAGTGCACGTCG ((((((((...((((((((+))))))))...)))))))) | criterion met
CGACGTGCTTTATGTGCTG+CAGCACATGGCGCACGTCG ((((((((...((((((((+))))))))...)))))))) | criterion met
CGACGTGCATAATGTGCTG+CAGCACATGGCGCACGTCG ((((((((...((((((((+))))))))...)))))))) | criterion not met
CGACGTGCTAGATGTGCTG+CAGCACATGGTGCACGTCG ((((((((...((((((((+))))))))...)))))))) | criterion met
CGACGTGCTCAATGTGCTG+CAGCACATTGCGCACGTCG ((((((((.((((((((((+)))))))))).)))))))) | criterion not met
CGACGTGCCTCATGTGCTG+CAGCACATAGTGCACGTCG ((((((((...((((((((+))))))))...)))))))) | criterion met

* * *

// values below are reported Tm
experiment: melting temperature; melt of duplexes; conditions: sodium 0.0675 M; strand 1 µM
OBSERVABLE: Tm (°C)

SUBSTANCE | OBSERVABLE | UNIT INFO | DATA VALUE
CGACGTGCTTCATGTGCTG+CAGCACATTAGGCACGTCG ((((((((.(.((((((((+)))))))).).)))))))) | Tm | °C | 50
CGACGTGCGAAATGTGCTG+CAGCACATACGGCACGTCG ((((((((...((((((((+))))))))...)))))))) | Tm | °C | 49
CGACGTGCAATATGTGCTG+CAGCACATATGGCACGTCG ((((((((.((((((((((+)))))))))).)))))))) | Tm | °C | 55.6
CGACGTGCTGTATGTGCTG+CAGCACATACAGCACGTCG (((((((((((((((((((+))))))))))))))))))) | Tm | °C | 62.1
CGACGTGCTGCATGTGCTG+CAGCACATTGAGCACGTCG (((((((((..((((((((+))))))))..))))))))) | Tm | °C | 52.2
CGACGTGCATGATGTGCTG+CAGCACATTTGGCACGTCG ((((((((...((((((((+))))))))...)))))))) | Tm | °C | 50.3
CGACGTGCAATATGTGCTG+CAGCACATCCGGCACGTCG ((((((((...((((((((+))))))))...)))))))) | Tm | °C | 48.5

* * *

assay: melting temperature; melt of duplexes; settings: sodium 0.0675 M; strand 1 µM
The label is TRUE for Tm below 50 °C and FALSE for Tm equal to or exceeding 50 °C.

SUBSTANCE | CATEGORY
CGACGTGCGTCATGTGCTG+CAGCACATTTAGCACGTCG ((((((((...((((((((+))))))))...)))))))) | FALSE
CGACGTGCTCAATGTGCTG+CAGCACATCAAGCACGTCG (((((((((..((((((((+))))))))..))))))))) | FALSE
CGACGTGCAATATGTGCTG+CAGCACATAGAGCACGTCG ((((((((..(((((((((+)))))))))..)))))))) | FALSE
CGACGTGCCTTATGTGCTG+CAGCACATCTGGCACGTCG (((((((((..((((((((+))))))))..))))))))) | FALSE
CGACGTGCATTATGTGCTG+CAGCACATCTGGCACGTCG ((((((((...((((((((+))))))))...)))))))) | TRUE
CGACGTGCTTTATGTGCTG+CAGCACATGGTGCACGTCG ((((((((...((((((((+))))))))...)))))))) | TRUE
CGACGTGCAAAATGTGCTG+CAGCACATACCGCACGTCG ((((((((...((((((((+))))))))...)))))))) | TRUE
CGACGTGCACGATGTGCTG+CAGCACATCCGGCACGTCG ((((((((..(((((((((+)))))))))..)))))))) | FALSE
CGACGTGCCCTATGTGCTG+CAGCACATCATGCACGTCG ((((((((...((((((((+))))))))...)))))))) | TRUE
CGACGTGCGCGATGTGCTG+CAGCACATCCCGCACGTCG (((((((((.(((((((((+))))))))).))))))))) | FALSE
CGACGTGCGAGATGTGCTG+CAGCACATATTGCACGTCG ((((((((.(.((((((((+)))))))).).)))))))) | FALSE
CGACGTGCGGGATGTGCTG+CAGCACATTCCGCACGTCG ((((((((((.((((((((+)))))))).)))))))))) | FALSE
CGACGTGCTTAATGTGCTG+CAGCACATGTAGCACGTCG (((((((((..((((((((+))))))))..))))))))) | FALSE
